# assay_method_text: isobaric coefficient of expansion
# condition_notes: 328.15 K; 20000 kPa; Liquid; DSC with Pressure Shift
Give measured isobaric coefficient of expansion for each item. Keep answers brief.

# annotated cases, reported isobaric coefficient of expansion shown
> print(dat)
   compound        result
1  CCC(O)CC   0.00103 1/K
2    CCCCCO  0.000873 1/K

Kindly consider the entry below.
Need isobaric coefficient of expansion of CCCCCN , thanks.
0.00107 1/K

* * *

# assay_method_text: isobaric coefficient of expansion
# condition_notes: 338.15 K; 10000 kPa; Liquid; DSC with Pressure Shift
quantity_name: isobaric coefficient of expansion

Below, 2 compounds whose answers are already recorded.
> print(dat)
                 compound                      quantity.name        result
1   CCC(O)CC [3-pentanol]  isobaric coefficient of expansion   0.00113 1/K
2  CCCCCCCCO [octan-1-ol]  isobaric coefficient of expansion  0.000873 1/K

From here, focus on the item given below.
Would you mind telling me what isobaric coefficient of expansion value was observed for CCCCCCCCCCO [decan-1-ol] ?
0.000843 1/K

* * *

Record form. Attribute: isobaric coefficient of expansion. Fill in for each entry.
# assay_method_text: isobaric coefficient of expansion
# condition_notes: 348.15 K; 10000 kPa; Liquid; DSC with Pressure Shift

> print(dat)
                      compound       result
1                       CCCCCO    0.001 1/K
2  CCCC(C)O (stereo not drawn)  0.00115 1/K
3                     CCC(O)CC  0.00117 1/K

Hi, could you look up isobaric coefficient of expansion for each item in my list?
1. CCO
2. CCCCCCO
3. CCCCCCCO
4. CCCO
5. CCCCCN

0.00122 1/K
0.00096 1/K
0.000927 1/K
0.00112 1/K
0.00118 1/K

* * *

Could you please report measured isobaric coefficient of expansion for the items listed next?
# assay_method_text: isobaric coefficient of expansion
# condition_notes: 298.15 K; 50000 kPa; Liquid; DSC with Pressure Shift

Recorded results for 10 molecules are shown here.
> print(dat)
                                    molecule        result
 1                  CCCCCCCCCCO [decan-1-ol]  0.000679 1/K
 2                    CCCCCCCCO [octan-1-ol]  0.000687 1/K
 3                     CCC(O)CC [3-pentanol]  0.000822 1/K
 4                   CCCCCCCCCO [nonan-1-ol]  0.000682 1/K
 5                      CCCCCO [pentan-1-ol]  0.000729 1/K
 6                        CCCO [propan-1-ol]  0.000795 1/K
 7                             CCO [ethanol]  0.000853 1/K
 8                      CCCCCCO [hexan-1-ol]  0.000712 1/K
 9                    CCCCCCCO [heptan-1-ol]  0.000695 1/K
10  CCCC(C)O (stereo unspecified) [pentan-2-ol]  0.000784 1/K

We now examine a further molecule.
Would you kindly share the measured isobaric coefficient of expansion for CCCCCN [1-pentanamine] ?
0.000927 1/K
